# Tested on: U251 CNS
# assay_summary: NCI-60 one-dose screen, 48 h
# condition_notes: 10 µM unless noted
About 83,000 compounds went through this panel and 20% of them were active in at least one assay; those are over-represented in the sample as a whole. Active and inactive are the calls of the source. Rule for the calls: active = growth percent below 10; inactive = the rest.
Pick from 1 for active, 0 for inactive when you respond.

Use these answered entries as a reference point.
> print(dat)
                                   molecule  target.or.system  class
1  c1coc(CNc2ccnc(Nc3ccc(OCCN4CCCCC4)cc3)n2)c1          U251 CNS      0
2  COc1ccc2c(c1)[nH]c(=O)c1c3cc(C)c(C)cc3cn21          U251 CNS      1
3  NC(=S)N/N=C(/CCN1CCCC1)CC(C1=C(O)C2=CCCCC2OC1=O)c1ccccc1 (stereo unspecified)          U251 CNS      0
4  Fc1ccccc1-c1nc(-c2nc3cc(Cl)c(Cl)cc3[nH]2)c2ccccn12          U251 CNS      0
5  Cc1ccc(S(=O)(=O)Nc2c(Br)cc(Br)cc2C(N)=O)cc1          U251 CNS      0
6  COc1cc(/C=C/C(=O)c2ccc(Nc3ncnc4cc(OC)c(OC)cc34)cc2)cc(OC)c1          U251 CNS      0
7            CCNc1nc(S(=O)(=O)CC)nc2ccccc12          U251 CNS      0
8  O=S1(=O)CCC(N(/N=C/c2ccco2)c2ccccc2)C1 (stereo unspecified)          U251 CNS      0

# lookup: test call for N=C(N)c1ccc(-c2cc(Cl)cc(Cl)c2)cn1
0

Field entry: Clc1cc2c(nn1)Nc1ccccc1S2
0

Field entry: CN(C)CCCN(c1nc(C(Cl)(Cl)Cl)ns1)c1nc(C(Cl)(Cl)Cl)ns1
0

Field entry: O=C(Nc1ccc2c(c1)OCO2)C(=O)c1c[nH]c2cc(F)ccc12
0

Field entry: COc1ccc(Nc2nn3c(C)cc(C)nc3c2C(=O)Nc2ccc(C)cc2)c(OC)c1
0

* * *

# Tested on: UACC-62 melanoma
# assay_summary: NCI-60 one-dose screen, 48 h (100 = growth as untreated, 0 = no growth, -100 = all killed)
# condition_notes: 10 µM unless noted
Compounds without any hit were thinned out: in the full panel of roughly 83,000, 20% have a hit.
experimental_endpoint: growth (%)
Write it as a number; the unit % goes unstated.

Would you please look over these solved cases?
> print(dat)
                                 cpd.smiles  experimental.endpoint  observed.result
1  CCCCCCCCCCCC(=O)NCCC[N+](C)(C)CC(=O)[O-]                 growth               78
2  O=[N+]([O-])c1ccc(C(c2ccccc2)c2ccccc2)cc1                 growth             85.5
3  Cc1ccc(S(=O)(=O)NCCCNc2cc(-c3cn(C(C)(C)C)nc3-c3cccc(O)c3)ccn2)cc1                 growth             66.8
4              O=C1CCCCC1(c1ccccc1)c1ccccc1                 growth             99.7

Moving on to another compound below.
Please give the measured growth for this compound: CC(C)OC(=O)N1CCOCC1
98.6

The measured values listed here are drawn from PubChem BioAssay (NCI).
